Target: ACh-bound M5 mAChR (Homo sapiens)
Sequence (P08912 1-532): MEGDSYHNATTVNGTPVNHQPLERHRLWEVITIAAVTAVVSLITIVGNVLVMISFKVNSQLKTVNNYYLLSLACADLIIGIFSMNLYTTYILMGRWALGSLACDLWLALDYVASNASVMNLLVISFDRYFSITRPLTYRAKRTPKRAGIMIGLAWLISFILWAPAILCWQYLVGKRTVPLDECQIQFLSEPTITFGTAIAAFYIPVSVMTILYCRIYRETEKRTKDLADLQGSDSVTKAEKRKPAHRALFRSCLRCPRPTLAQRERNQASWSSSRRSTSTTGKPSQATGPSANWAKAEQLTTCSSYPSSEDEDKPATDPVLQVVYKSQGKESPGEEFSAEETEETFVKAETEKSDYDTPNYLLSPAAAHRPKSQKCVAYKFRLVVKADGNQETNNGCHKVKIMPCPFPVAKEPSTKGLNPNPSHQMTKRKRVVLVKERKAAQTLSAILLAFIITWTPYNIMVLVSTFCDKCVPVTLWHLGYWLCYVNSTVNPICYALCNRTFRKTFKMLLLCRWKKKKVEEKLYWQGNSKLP
READOUT KIND: Kd

Task: Query: Kd; subject: CCN(Cc1ccccc1C(F)(F)F)C(=O)C1CCN(S(=O)(=O)c2ccc3[nH]ncc3c2)CC1 [ML380]
Result: ~575 nM
